tested on: KRAS-mutant PDC tumor spheroid with HUVEC/MSC, viability; assay: Anticancer human tumor 327498-153-R-J2-PDC patient-derived uterine carcinosarcoma cell line growth inhibition [KRAS2]; conditions: second compound 0.316 µM; first compound 0.1 µM; active means viability on the fitted dose curve at most 10% of control; inactive means the rest;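 further: spheroids exposed to agents for seven days before reading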
The reply should name one outcome from active, inactive

Here's what some known entries look like.
> print(dat)
                                   compound                             tested.system  class.label
1  CC(C)n1nc(-c2ccc3oc(N)nc3c2)c2c(N)ncnc21 + C=CC(=O)N1CCN(c2nc(=O)n(-c3c(C)ccnc3C(C)C)c3nc(-c4c(O)cccc4F)c(F)cc23)C(C)C1  KRAS-mutant PDC tumor spheroid with HUVEC/MSC, viability       active
2  Cn1ncnc1[C@H]1c2n[nH]c(=O)c3cc(F)cc(c23)N[C@@H]1c1ccc(F)cc1 + COc1cc2nc(C)nc(NC(C)c3cc(N)cc(C(F)(F)F)c3)c2cc1OC1CCOC1  KRAS-mutant PDC tumor spheroid with HUVEC/MSC, viability     inactive

Exam item: What was the test verdict on CC1COCCN1c1cc(-c2ccnn2C)c2ccnc(-c3ccn[nH]3)c2n1 (stereo not drawn) + CC1OCC2(CCN(c3cnc(Sc4ccnc(N)c4Cl)c(N)n3)CC2)C1N ?
Marked response: active
